Target: A2B receptors (Homo sapiens)
Sequence (P29275 1-332): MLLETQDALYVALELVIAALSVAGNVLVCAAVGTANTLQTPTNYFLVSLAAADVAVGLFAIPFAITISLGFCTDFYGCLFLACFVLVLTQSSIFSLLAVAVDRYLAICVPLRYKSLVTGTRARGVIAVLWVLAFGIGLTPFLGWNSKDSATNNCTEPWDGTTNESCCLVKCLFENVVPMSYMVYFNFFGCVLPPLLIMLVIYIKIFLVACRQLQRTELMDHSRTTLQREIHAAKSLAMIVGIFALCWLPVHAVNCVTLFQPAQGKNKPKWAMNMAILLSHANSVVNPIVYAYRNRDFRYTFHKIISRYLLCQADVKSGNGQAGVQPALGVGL
Assay: functional cAMP (HTRF) assay, recombinant HEK293 cells expressing human A2B receptor, agonist NECA
pIC50: −log10 of the molar value.
property: pIC50

Below: 5 molecules and their reported pIC50.
COc1ccc(-c2cnn(C)c2)c2[nH]c(NC(=O)c3cnn(C)c3)nc12	> 7.00
COc1ccc(-c2ccncc2)c2[nH]c(NC(=O)c3c[nH]cn3)nc12	> 7.00
COc1ccc(C2CCOCC2)c2nc(NC(=O)c3ccnc(N4CC[C@]5(CCOC5)C4)c3)[nH]c12	< 6.00
COc1ccc(-c2cnn(C)c2)c2nc(NC(=O)c3ccc4ocnc4c3)[nH]c12	> 6.00
COc1ccc(-c2ccccc2)c2nc(NC(=O)c3cnc(C)s3)[nH]c12	> 8.00

For each listed entry, give its pIC50.
1. COc1ccc(-c2cnn(CCC(C)C)c2)c2nc(NC(=O)N3CCC(C)(O)CC3)[nH]c12
2. COc1ccc(-c2ccncc2)c2nc(NC(=O)N3CCC4(COC4)C3)[nH]c12

stdout:
1. < 6.00
2. > 6.00
